Molecular target: Neurogenic locus notch homolog protein 2 (Homo sapiens)
Assay: Notch2 binders on small-molecule microarrays, primary screen, biochemical, small-molecule microarray, 635 nm fluorescence, stem cell growth factors (AID 1073)
Conditions: Notch2 binding, higher = more signal
Where composite z-score equals or exceeds 1, the correct label is satisfied; where it does not, the label is not satisfied.

COMPOUND	STUDY TARGET	ASSIGNED CLASS
O=C(NCC(F)(F)F)[C@@H]1c2ccccc2C(=O)N(C2CCCCC2)[C@H]1c1ccc(CO)cc1	Neurogenic locus notch homolog protein 2 (Homo sapiens)	not satisfied
Cc1ccc(S[C@]2(C(=O)NCC(F)(F)F)CC(=O)N(C(C)C)[C@@H]2c2ccc(CO)cc2I)cc1	Neurogenic locus notch homolog protein 2 (Homo sapiens)	not satisfied
C=CCOC(=O)[C@H]1[C@@H]2C(=O)O[C@@H](c3ccccc3)[C@@H](c3ccccc3)N2[C@@H](c2ccc(OCCOC(=O)[C@H]3C[C@H]4C(=O)N5CCC[C@H]5C(=O)N4[C@H]3c3ccc(O)cc3)cc2)[C@]12C(=O)Nc1ccc(I)cc12	Neurogenic locus notch homolog protein 2 (Homo sapiens)	satisfied
CCCCN1CC=CC23O[C@@H]4/C=C\CCC(C)OC(=O)C4[C@H]2C(=O)N(CCCCCO)[C@@H]3C1=O (some centres undefined)	Neurogenic locus notch homolog protein 2 (Homo sapiens)	not satisfied
COc1ccc(CCNC(=O)[C@@]2(Sc3ccc(C)cc3)CC(=O)N(C3CCCCC3)[C@@H]2c2ccc(CO)cc2I)cc1	Neurogenic locus notch homolog protein 2 (Homo sapiens)	satisfied
COc1ccc(C(=O)Nc2ccc(CN3C(=O)[C@@]4(O[C@@H](CC(=O)N5CCC[C@H]5CO)[C@H]([Si](C)(C)c5ccc(OC)cc5)[C@H]4C)c4ccccc43)cc2)cc1	Neurogenic locus notch homolog protein 2 (Homo sapiens)	satisfied
CN(C)C(=O)[C@]1(Cc2ccccc2CN=[N+]=[N-])N=C(c2ccc(OCCCO)cc2)O[C@@H]1c1ccccc1CN=[N+]=[N-]	Neurogenic locus notch homolog protein 2 (Homo sapiens)	satisfied
CC(C)C[C@@H]1NC(=O)[C@@H]2C[C@H](C(=O)NCCCCCN)[C@H](c3cccc(OCCO)c3)N2C1=O	Neurogenic locus notch homolog protein 2 (Homo sapiens)	not satisfied
O=C(NCc1ccccc1)[C@@]1(CCS(=O)(=O)c2ccccc2)N=C(c2ccc(OCCCO)cc2)O[C@H]1c1ccccc1	Neurogenic locus notch homolog protein 2 (Homo sapiens)	satisfied
C=C(COC)/C(=C/C[C@H](OC(=O)c1ccncc1)c1ccc(OCCO)cc1)c1cnc2ccccc2c1	Neurogenic locus notch homolog protein 2 (Homo sapiens)	satisfied
C=CCOC(=O)[C@@H]1[C@H]2C(=O)O[C@H](c3ccccc3)[C@H](c3ccccc3)N2[C@H](c2ccc(OCCOC(=O)[C@@H]3C[C@@H]4C(=O)N[C@@H](CCCCN(C)C)C(=O)N4[C@@H]3c3ccc(O)cc3)cc2)[C@@]12C(=O)Nc1ccc(I)cc12	Neurogenic locus notch homolog protein 2 (Homo sapiens)	satisfied
NCCCCCNC(=O)[C@@H]1C[C@@H]2C(=O)NCC(=O)N2[C@@H]1c1ccc(O)cc1	Neurogenic locus notch homolog protein 2 (Homo sapiens)	not satisfied
COCCCNC(=O)C1N=C(c2ccc(OCCCO)cc2)N(c2ccccc2)O1 (centres undefined)	Neurogenic locus notch homolog protein 2 (Homo sapiens)	not satisfied
CC(C)(C)OC(=O)CC[C@]12N=C(c3ccc(OCCCO)cc3)O[C@H]1c1ccccc1N(CCS(=O)(=O)c1ccccc1)C2=O	Neurogenic locus notch homolog protein 2 (Homo sapiens)	satisfied
